Assay: logP by LC-MS, method [b], acidic range pH 2.7
Format: physicochemical
Conditions: pH 2.7
Below: a set of entries, each annotated with reported log p.

Below, 3 compounds whose answers are already recorded.
[[record]]
compound = "O=C(O)c1ccc(Nc2ncc(Br)c(NC3CCC3)n2)cc1 [Compound 156]"
val = "1.94[b]"

[[record]]
compound = "CC(=O)c1cccc(Nc2ncc(Br)c(NC3CCC3)n2)c1 [Compound 32]"
val = "2.28[b]"

[[record]]
compound = "FC(F)(F)Oc1cccc(Nc2ncc(Cl)c(NC3CCC3)n2)c1 [compound 112]"
val = "3.59[b]"


Query block: Could you tell me which log p is on file for COCc1cccc(Nc2ncc(Br)c(NC3CCC3)n2)c1 [Compound 39] ?
Result block: 2.2[b]

Query block: Requested field: log p. Item: CN(C)S(=O)(=O)Oc1cccc(Nc2ncc(Br)c(NC3CCC3)n2)c1 [Compound 89]
Result block: 2.7[b]

Query block: For CC(=O)c1ccc(Nc2ncc(Br)c(NC3CCC3)n2)cc1 [compound 145] , what is its reported log p?
Result block: 2.65[b]

Query block: Reported log p for CC(=O)Nc1cccc(Nc2ncc(Br)c(NC3CCC3)n2)c1 [Compound 96] : what is it?
Result block: 1.54[b]

Query block: // log p lookup, key: COc1ccc(Nc2ncc(Br)c(NC3CCC3)n2)cc1OC [Compound 65]
Result block: 1.71[b]

Query block: Reported log p, compound CNC(=O)c1ccc(Nc2ncc(Br)c(NC3CCC3)n2)cc1 [Compound 101] : ____
Result block: 1.54[b]

###

Assay: logP by LC-MS, method [b], acidic range pH 2.7
Format: physicochemical
Details: pH 2.7
measuredProperty: chromatographic logP

a. CCCOc1cccc(Nc2ncc(Br)c(NC3CCC3)n2)c1
b. CC1(Nc2nc(Nc3ccccc3)ncc2Cl)CCC1
Query block: Of a and b , which shows the smaller chromatographic logP value? State your choice using its label.
Result block: b
(b: 2.1, a: 3.27)

###

Experiment: logP by LC-MS, method [b], acidic range pH 2.7
Type: physicochemical
Conditions: pH 2.7
measuredProperty: log p

Answered examples (3):
[[record]]
compound = "COc1cccc(Nc2ncc(C(F)(F)F)c(NC3CCC3)n2)c1"
val = "3.48[b]"

[[record]]
compound = "O=S1(=O)CCCN1c1cccc(Nc2ncc(Br)c(NC3CCC3)n2)c1"
val = "2.25[b]"

[[record]]
compound = "CN(C)C(=O)c1ccc(Nc2ncc(C(F)(F)F)c(NC3CCC3)n2)cc1"
val = "2.48[b]"


Query block: Fill blank: measured log p of the compound Cc1ccc(NS(=O)(=O)c2cc(Nc3ncc(Br)c(NC4CCC4)n3)ccc2C)cc1 is ____.
Result block: 3.07[b]

Query block: Quick one: log p of O=C1CCCc2ccc(Nc3ncc(Br)c(NC4CCC4)n3)cc2N1 ?
Result block: 1.75[b]

Query block: Query (compound): Brc1ccc(Nc2ncc(Br)c(NC3CCC3)n2)cc1 ; field requested: log p
Result block: 3.18[b]

Query block: Consider the compound shown here: CN1C(=O)COc2ccc(Nc3ncc(Br)c(NC4CCC4)n3)cc21 [compound 14] What is its recorded log p?
Result block: 1.85[b]

Query block: Any idea what its log p is? The compound is CCOc1ccc(Nc2ncc(Br)c(NC3CCC3)n2)cc1
Result block: 2.17[b]

Query block: Look up log p for this compound: Brc1cnc(Nc2ccc3c(c2)OCO3)nc1NC1CCC1
Result block: 1.87[b]

###

In this section we review reported log p values for a set of compounds.
Test: logP by LC-MS, method [b], acidic range pH 2.7
Assay type: physicochemical
Conditions: pH 2.7

Query block: I have this compound here, FC(F)(F)Oc1ccc(Nc2ncc(Br)c(NC3CCC3)n2)cc1Cl [Compound 81] , and I need its recorded log p.
Result block: 4.72[b]

Query block: Fill in: log p of CN1CCN(c2cccc(Nc3ncc(Cl)c(NC4CCC4)n3)c2)C1=O [Compound 237] is ___
Result block: 1.66[b]

Query block: # input compound: CC(=O)Nc1ccc(Nc2ncc(Cl)c(NC3CCC3)n2)cc1 [Compound 117] ; wanted: its log p
Result block: 1.43[b]

Query block: Look up log p: O=S(=O)(c1ccc(Nc2ncc(Br)c(NC3CCC3)n2)cc1)C(F)(F)F [compound 193]
Result block: 4.32[b]

Query block: For the compound FC(F)(F)Oc1cccc(Nc2ncc(Br)c(NC3CCC3)n2)c1 [compound 182] , what log p is on record?
Result block: 4.15[b]

Query block: For the compound shown here, COc1ccccc1Nc1ncc(Br)c(NC2CCC2)n1 [Compound 68] , give the reported log p.
Result block: 2.23[b]

###

Test: logP by LC-MS, method [b], acidic range pH 2.7
Format: physicochemical
Conditions: pH 2.7
measuredProperty: log p

[[record]]
substancesmiles = "O=C1Cc2cc(Nc3ncc(Cl)c(NC4CCC4)n3)ccc2N1"
val = "1.33[b]"


Query block: Sample O=C(Nc1cccc(Nc2ncc(Br)c(NC3CCC3)n2)c1)c1ccccc1 — what was its log p?
Result block: 2.46[b]

Query block: log p for CC(=O)Cc1ccc(Nc2ncc(Cl)c(NC3CCC3)n2)cc1 ?
Result block: 1.75[b]

Query block: Which log p is listed for Cc1cc(Nc2ncc(Br)c(NC3CCC3)n2)ccc1O ?
Result block: 1.59[b]

Query block: What does the data say about its log p? Entry: CCNC(=O)c1cccc(Nc2ncc(Br)c(NC3CCC3)n2)c1
Result block: 1.73[b]

Query block: Looking for the measured log p of CC(C)(CF)C(=O)Nc1ccc(Nc2ncc(Br)c(NC3CCC3)n2)cc1 , can you help?
Result block: 1.99[b]

###

Test: logP by LC-MS, method [b], acidic range pH 2.7
Type: physicochemical
Conditions: pH 2.7
measuredProperty: log p

[[record]]
substancesmiles = "O=C1CCC(=O)N1c1ccc(Nc2ncc(Br)c(NC3CCC3)n2)cc1"
val = "1.62[b]"


Query block: Would you kindly share the measured log p for O=C(c1ccc(Nc2ncc(Br)c(NC3CCC3)n2)cc1)C(F)(F)F ?
Result block: 4.41[b]

Query block: Give the measured log p of O=c1[nH]c2cc(Nc3ncc(Br)c(NC4CCC4)n3)ccc2o1 .
Result block: 1.61[b]

Query block: What log p value was documented for this molecule, Clc1cnc(Nc2ccc(I)cc2)nc1NC1CCC1 ?
Result block: 3.49[b]

Query block: If you can, please state the reported log p value of CN(C)C(=O)c1ccc(Nc2ncc(Cl)c(NC3CCC3)n2)cc1 .
Result block: 1.6[b]

Query block: Please look up its log p: O=C1CCCCN1c1cccc(Nc2ncc(Cl)c(NC3CCC3)n2)c1
Result block: 1.66[b]

Query block: Recorded log p of CS(=O)(=O)c1cccc(Nc2ncc(Br)c(NC3CCC3)n2)c1 , please.
Result block: 2.07[b]

###

Test: logP by HPLC on reversed-phase columns (C 18), method [a], acidic range pH 2.3
Type: physicochemical
Conditions: pH 2.3
measuredProperty: log p

Reference set (4 entries):
[[record]]
substancesmiles = "CC(C)Oc1ccc(Nc2ncc(Cl)c(NC3CCC3)n2)cc1.Cl"
val = "2.21^[a]"

[[record]]
substancesmiles = "O=C1CCCN1c1cc(Nc2ncc(C(F)(F)F)c(NC3CCC3)n2)ccc1F"
val = "2.69[a];"

[[record]]
substancesmiles = "Cl.Clc1cnc(Nc2ccccc2)nc1NC1CCC1"
val = "1.97^[a]"

[[record]]
substancesmiles = "O=C1CCCN1c1cccc(Nc2ncc(Cl)c(NC3CCC3)n2)c1"
val = "1.71[a];"


Query block: Return reported log p; argument: O=C1CCCN1c1ccc(Nc2ncc(C(F)(F)F)c(NC3CCC3)n2)cc1
Result block: 2.51[a];

Query block: What does the data say about its log p? Entry: NS(=O)(=O)c1cc(Nc2ncc(Cl)c(NC3CCC3)n2)cc(C(F)(F)F)c1
Result block: 2.7[a]

Query block: What value of measured log p is listed for Fc1ccc(Nc2ncc(C(F)(F)F)c(NC3CCC3)n2)cc1 ?
Result block: 3.5[a];

Query block: Quick one: log p of CNS(=O)(=O)c1ccc(Nc2ncc(Cl)c(NC3CCC3)n2)cc1 ?
Result block: 2.01[a]

Query block: log p lookup needed for Cc1ccc(S(=O)(=O)O)cc1.Cc1nc(Nc2ccccc2)nc(NC2CCC2)c1Cl , thanks.
Result block: 1.95^[a]

Query block: Can you share its log p? I mean this compound: COc1cc(Nc2ncc(Cl)c(NC3CCC3)n2)cc(OC)c1.Cl
Result block: 2.23^[a]

###

log p reference
Assay: physchem
Format: physicochemical
Conditions: pH 7.8
Marks after values point to notes of the source that are not given here.

Below, each entry is followed by its recorded log p result.
[[record]]
compound = "CCSc1cccc(Nc2ncc(C(F)(F)F)c(NC3CCC3)n2)c1"
measuredproperty = "log p"
val = "4.8[c]"

[[record]]
compound = "O=C1CCCN1c1cccc(Nc2ncc(Cl)c(NC3CCC3)n2)c1"
measuredproperty = "log p"
val = "2.74[c]"

[[record]]
compound = "CC(C)NC(=O)c1ccc(Nc2ncc(Cl)c(NC3CCC3)n2)cc1"
measuredproperty = "log p"
val = "2.68[c]"

[[record]]
compound = "O=C1CCCN1c1ccc(Nc2ncc(C(F)(F)F)c(NC3CCC3)n2)cc1"
measuredproperty = "log p"
val = "3.01[c]"

[[record]]
compound = "CC(C#N)c1ccc(Nc2ncc(Cl)c(NC3CCC3)n2)cc1 (stereo not shown)"
measuredproperty = "log p"
val = "3.45[c]"

[[record]]
compound = "CC1CC(C)CN(c2cccc(Nc3ncc(Cl)c(NC4CCC4)n3)c2)C1 (stereo not shown)"
measuredproperty = "log p"
val = "5.82[c]"

[[record]]
compound = "O=C1CCCN1c1cc(Nc2ncc(C(F)(F)F)c(NC3CCC3)n2)ccc1F"
measuredproperty = "log p"
val = "2.96[c]"

[[record]]
compound = "CCN(CC)C(=O)c1ccc(Nc2ncc(Cl)c(NC3CCC3)n2)cc1"
measuredproperty = "log p"
val = "3.19[c]"


Query block: Recorded log p of O=C(c1cccc(Nc2ncc(Cl)c(NC3CCC3)n2)c1)N1CCOCC1 , please.
Result block: 2.39[c]

Query block: Field request: log p | item: O=C1CCCN1c1cccc(Nc2ncc(C(F)(F)F)c(NC3CCC3)n2)c1
Result block: 3.09[c]
